- Test system: iPS(Foreskin)-4-derived d8 HPTC-like cells
- details: human, 16 h, 1 μg/ml
Measured IL6 Expression Levels, listed per entry for reference.
Output spec: single numeric token, no unit.

Reference set, count: 5
INSERT INTO measurements (molecule, target_entity, observed_result) VALUES
  ('CC(C)[C@H](N)C(=O)OCCOCn1cnc2c(=O)[nH]c(N)nc21 [Valacyclovir]', 'iPS(Foreskin)-4-derived d8 HPTC-like cells', 1.3),
  ('NCC(=O)O [Glycine]', 'iPS(Foreskin)-4-derived d8 HPTC-like cells', 1.6),
  ('C=CC[C@@H]1/C=C(\C)C[C@H](C)C[C@H](OC)[C@H]2O[C@@](O)(C(=O)C(=O)N3CCCC[C@H]3C(=O)O[C@H](/C(C)=C/[C@@H]3CC[C@@H](O)[C@H](OC)C3)[C@H](C)[C@@H](O)CC1=O)[C@H](C)C[C@@H]2OC [Tacrolimus]', 'iPS(Foreskin)-4-derived d8 HPTC-like cells', 6.6),
  ('COc1ccc(C[C@H](N)C(=O)N[C@H]2[C@@H](O)[C@H](n3cnc4c(N(C)C)ncnc43)O[C@@H]2CO)cc1 [Puromycin]', 'iPS(Foreskin)-4-derived d8 HPTC-like cells', 1.9),
  ('NC[C@H]1O[C@H](O[C@H]2[C@H](O)[C@@H](O[C@H]3O[C@H](CO)[C@@H](O)[C@H](N)[C@H]3O)[C@H](N)C[C@@H]2N)[C@H](N)C[C@@H]1O [Tobramycin]', 'iPS(Foreskin)-4-derived d8 HPTC-like cells', 1.3);

Sample COc1ccc2[nH]cc(CCNC(C)=O)c2c1 [Melatonin] ; IL6 Expression Levels observed: 6.5

Sample NC(=O)c1ncn([C@@H]2O[C@H](CO)[C@@H](O)[C@H]2O)n1 [Ribavirin] ; IL6 Expression Levels observed: 1.4

----------
Measured IL6 Expression Levels, listed per entry for reference.
- Test system: iPS(Foreskin)-4-derived d8 HPTC-like cells
- details: human, 16 h, 100 μg/ml
Output spec: single numeric token, no unit.

Reference set, count: 5
INSERT INTO results (compound, observation_type, observed_result) VALUES
  ('CCC[C@@H]1C[C@@H](C(=O)N[C@@H]([C@H]2O[C@H](SC)[C@H](O)[C@@H](O)[C@H]2O)[C@@H](C)O)N(C)C1', 'IL6 Expression Levels', 1.2),
  ('CCOc1ccc(NC(C)=O)cc1', 'IL6 Expression Levels', 5.3),
  ('COc1ccc2[nH]cc(CCNC(C)=O)c2c1', 'IL6 Expression Levels', 4.4),
  ('O=c1[nH]cc(F)c(=O)[nH]1', 'IL6 Expression Levels', 9.2),
  ('CC(C)[C@H](N)C(=O)OCCOCn1cnc2c(=O)[nH]c(N)nc21', 'IL6 Expression Levels', 1.6);

Sample C[C@H]1O[C@H](O[C@H]2[C@H](O)[C@@H](O)[C@@H](O[C@H]3[C@H](O)[C@@H](O)C(O)O[C@@H]3CO)O[C@@H]2CO)[C@H](O)[C@@H](O)[C@@H]1N[C@H]1C=C(CO)[C@@H](O)[C@H](O)[C@H]1O (stereo partly drawn) ; IL6 Expression Levels observed: 1.3

Sample `CO[C@H]1/C=C/O[C@@]2(C)Oc3c(C)c(O)c4c(O)c(c(/C=N/N5CCN(C)CC5)c(O)c4c3C2=O)NC(=O)/C(C)=C\C=C\[C@H](C)[C@H](O)[C@@H](C)[C@@H](O)[C@@H](C)[C@H](OC(C)=O)[C@@H]1C` ; IL6 Expression Levels observed: 2.3

Sample `NCC(=O)O` ; IL6 Expression Levels observed: 1.7

Sample `CC(=O)Nc1ccc(O)cc1` ; IL6 Expression Levels observed: 1.4

Sample `NC[C@H]1O[C@H](O[C@H]2[C@H](O)[C@@H](O[C@H]3O[C@H](CO)[C@@H](O)[C@H](N)[C@H]3O)[C@H](N)C[C@@H]2N)[C@H](N)C[C@@H]1O` ; IL6 Expression Levels observed: 1.4

Sample `COc1ccc(C[C@H](N)C(=O)N[C@H]2[C@@H](O)[C@H](n3cnc4c(N(C)C)ncnc43)O[C@@H]2CO)cc1` ; IL6 Expression Levels observed: 29.0

Sample `NC(=O)c1ncn([C@@H]2O[C@H](CO)[C@@H](O)[C@H]2O)n1` ; IL6 Expression Levels observed: 1.2

----------
Measured IL8 Expression Levels, listed per entry for reference.
- Tested on: iPS(Foreskin)-4-derived d8 HPTC-like cells
- details: human, 16 h, 10 μg/ml
Output spec: single numeric token, no unit.

INSERT INTO measurements (compound, observation_type, observed_result) VALUES
  ('COc1ccc2[nH]cc(CCNC(C)=O)c2c1 [Melatonin]', 'IL8 Expression Levels', 6.9),
  ('NC[C@H]1O[C@H](O[C@H]2[C@H](O)[C@@H](O[C@H]3O[C@H](CO)[C@@H](O)[C@H](N)[C@H]3O)[C@H](N)C[C@@H]2N)[C@H](N)C[C@@H]1O [Tobramycin]', 'IL8 Expression Levels', 0.6),
  ('C=CC[C@@H]1/C=C(\C)C[C@H](C)C[C@H](OC)[C@H]2O[C@@](O)(C(=O)C(=O)N3CCCC[C@H]3C(=O)O[C@H](/C(C)=C/[C@@H]3CC[C@@H](O)[C@H](OC)C3)[C@H](C)[C@@H](O)CC1=O)[C@H](C)C[C@@H]2OC [Tacrolimus]', 'IL8 Expression Levels', 5.1),
  ('CCC[C@@H]1C[C@@H](C(=O)N[C@@H]([C@H]2O[C@H](SC)[C@H](O)[C@@H](O)[C@H]2O)[C@@H](C)O)N(C)C1 [Lincomycin]', 'IL8 Expression Levels', 1.2),
  ('CC(=O)Nc1ccc(O)cc1 [Acetaminophen]', 'IL8 Expression Levels', 1.2);

Proceeding to the next compound to report its IL8 Expression Levels.
Sample CC(C)[C@H](N)C(=O)OCCOCn1cnc2c(=O)[nH]c(N)nc21 [Valacyclovir] ; IL8 Expression Levels observed: 1.4

----------
- Test system: iPS(Foreskin)-4-derived d8 HPTC-like cells
- details: 100 μg/ml, overnight (16 h), qPCR, normalized to vehicle control (=1), mean +/- s.d., n=3
observation type: IL6 Expression Levels
Output spec: single numeric token, no unit.

Reference set, count: 5
INSERT INTO results (compound, observed_result) VALUES
  ('CC(=O)[O-].CC(=O)[O-].[Pb+2] [Lead acetate]', 1.5),
  ('[Cl][Cd][Cl] [Cadmium chloride]', 10.3),
  ('[Bi+3].[Bi+3].[O-2].[O-2].[O-2] [Bismuth (III) oxide]', 2.1),
  ('CN[C@H](CC(C)C)C(=O)N[C@H]1C(=O)N[C@@H](CC(N)=O)C(=O)N[C@H]2C(=O)N[C@H]3C(=O)N[C@H](C(=O)N[C@H](C(=O)O)c4cc(O)cc(O)c4-c4cc3ccc4O)[C@H](O)c3ccc(c(Cl)c3)Oc3cc2cc(c3O[C@@H]2O[C@H](CO)[C@@H](O)[C@H](O)[C@H]2O[C@H]2C[C@](C)(N)[C@H](O)[C@H](C)O2)Oc2ccc(cc2Cl)[C@H]1O', 1.4),
  ('O=[As]O[As]=O (stereo not drawn) [Arsenic (III) oxide]', 14.2);

Sample `COc1cccc2c1cc([N+](=O)[O-])c1c(C(=O)O)cc3c(c12)OCO3` ; IL6 Expression Levels observed: 7.3

Sample [Cl][Au] [Gold (I) chloride] ; IL6 Expression Levels observed: 2.9

Sample [Cl][Cu][Cl] [Copper (II) chloride] ; IL6 Expression Levels observed: 22.5

Sample [K+].[K+].[O]=[Cr](=[O])([O-])[O][Cr](=[O])(=[O])[O-] [Potassium dichromate] ; IL6 Expression Levels observed: 3.3

----------
Measured IL8 Expression Levels, listed per entry for reference.
- Test system: iPS(Foreskin)-4-derived d8 HPTC-like cells
- details: human, 16 h, 100 μg/ml
Output spec: single numeric token, no unit.

Reference set, count: 3
INSERT INTO results (test_smiles, target_entity, observed_result) VALUES
  ('NC[C@H]1O[C@H](O[C@H]2[C@H](O)[C@@H](O[C@H]3O[C@H](CO)[C@@H](O)[C@H](N)[C@H]3O)[C@H](N)C[C@@H]2N)[C@H](N)C[C@@H]1O', 'iPS(Foreskin)-4-derived d8 HPTC-like cells', 0.9),
  ('CCOc1ccc(NC(C)=O)cc1', 'iPS(Foreskin)-4-derived d8 HPTC-like cells', 7.7),
  ('NCC(=O)O', 'iPS(Foreskin)-4-derived d8 HPTC-like cells', 2.5);

Sample `CC(C)[C@H](N)C(=O)OCCOCn1cnc2c(=O)[nH]c(N)nc21` ; IL8 Expression Levels observed: 1.0

Sample `CCC[C@@H]1C[C@@H](C(=O)N[C@@H]([C@H]2O[C@H](SC)[C@H](O)[C@@H](O)[C@H]2O)[C@@H](C)O)N(C)C1` ; IL8 Expression Levels observed: 2.4

Sample `COc1ccc2[nH]cc(CCNC(C)=O)c2c1` ; IL8 Expression Levels observed: 1.9

Sample `O=c1[nH]cc(F)c(=O)[nH]1` ; IL8 Expression Levels observed: 18.3

Sample `NC(=O)c1ncn([C@@H]2O[C@H](CO)[C@@H](O)[C@H]2O)n1` ; IL8 Expression Levels observed: 0.2
